System: erythrocytes from fresh human blood
Protocol Conditions: 150 μM peptide, 5% erythrocytes, 1 h at 37° C., relative to 200 μM melittin
% Haemolysis 150 μM less than 80% is 1 (yes); % Haemolysis 150 μM greater than or equal to 80% is 0 (no).

Check out these entries, answers already filled in.
{"Compound": "CC[C@H](C)[C@H](NC(=O)[C@H](CCCCN)NC(=O)[C@H](CCCCN)NC(=O)[C@H](Cc1ccccc1)NC(=O)[C@H](CC(C)C)NC(=O)[C@H](CCCCN)NC(=O)[C@H](Cc1ccc(O)cc1)NC(C)=O)C(=O)N[C@@H](CC(C)C)C(=O)N[C@@H](CCCCN)C(=O)N[C@@H](Cc1ccc(O)cc1)C(=O)N[C@@H](CC(C)C)C(N)=O [BP096]", "Qualitative Label": "0 (no)"}
{"Compound": "CC[C@H](C)[C@H](NC(=O)[C@H](CCCCN)NC(=O)[C@H](CCCCN)NC(=O)[C@H](Cc1ccccc1)NC(=O)[C@H](CC(C)C)NC(=O)[C@H](CCCCN)NC(=O)[C@H](CCCCN)NC(C)=O)C(=O)N[C@@H](CC(C)C)C(=O)N[C@@H](CCCCN)C(=O)N[C@@H](CCCCN)C(=O)N[C@@H](CC(C)C)C(N)=O [BP124]", "Qualitative Label": "1 (yes)"}
{"Compound": "CC[C@H](C)[C@H](NC(=O)[C@H](CCCCN)NC(=O)[C@H](CCCCN)NC(=O)[C@H](Cc1ccccc1)NC(=O)[C@H](CC(C)C)NC(=O)[C@H](CCCCN)NC(=O)[C@@H](N)Cc1ccc(O)cc1)C(=O)N[C@@H](CC(C)C)C(=O)N[C@@H](CCCCN)C(=O)N[C@@H](Cc1ccc(O)cc1)C(=O)N[C@@H](CC(C)C)C(N)=O [BP095]", "Qualitative Label": "1 (yes)"}

Proceed to the following item.
Ask: Decide: % Haemolysis 150 μM of CC[C@H](C)[C@H](NC(=O)[C@H](CCCCN)NC(=O)[C@H](CCCCN)NC(=O)[C@H](Cc1ccccc1)NC(=O)[C@H](CC(C)C)NC(=O)[C@H](CCCCN)NC(=O)[C@H](CCCCN)NC(=O)c1ccccc1)C(=O)N[C@@H](CC(C)C)C(=O)N[C@@H](CCCCN)C(=O)N[C@@H](Cc1ccc(O)cc1)C(=O)N[C@@H](CC(C)C)C(N)=O [BP103] strictly below 80%?
Reply: 0 (no)

* * *

System: erythrocytes from fresh human blood
Protocol Conditions: 250 μM peptide, 5% erythrocytes, 1 h at 37° C., relative to 200 μM melittin
Consider the following compounds; for each one, report its % Haemolysis 250 μM.
Give bare numbers, in %.

{"Compound": "CC[C@H](C)[C@H](NC(=O)[C@H](CCCCN)NC(=O)[C@H](CCCCN)NC(=O)[C@H](Cc1ccccc1)NC(=O)[C@H](CC(C)C)NC(=O)[C@H](CCCCN)NC(=O)[C@@H](N)CCCCN)C(=O)N[C@@H](CC(C)C)C(=O)N[C@@H](CCCCN)C(=O)N[C@@H](Cc1ccccc1)C(=O)N[C@@H](CC(C)C)C(N)=O [BP076]", "% Haemolysis 250 μM / %": 65}
{"Compound": "CC[C@H](C)[C@H](NC(=O)[C@H](CCCCN)NC(=O)[C@H](CCCCN)NC(=O)[C@H](Cc1ccccc1)NC(=O)[C@H](CC(C)C)NC(=O)[C@H](CCCCN)NC(=O)[C@@H](N)Cc1ccccc1)C(=O)N[C@@H](CC(C)C)C(=O)N[C@@H](CCCCN)C(=O)N[C@@H](Cc1ccc(O)cc1)C(=O)N[C@@H](CC(C)C)C(N)=O [BP090]", "% Haemolysis 250 μM / %": 84}

We now examine a further compound.
Ask: Lookup: % Haemolysis 250 μM / erythrocytes from fresh human blood / CC[C@H](C)[C@H](NC(=O)[C@H](CCCCN)NC(=O)[C@H](CCCCN)NC(=O)[C@H](Cc1ccccc1)NC(=O)[C@H](CC(C)C)NC(=O)[C@H](CCCCN)NC(=O)[C@H](CCCCN)NC(C)=O)C(=O)N[C@@H](CC(C)C)C(=O)N[C@@H](CCCCN)C(=O)N[C@@H](CCCCN)C(=O)N[C@@H](CC(C)C)C(N)=O [BP124]
Reply: 23

* * *

Consider the following compounds; for each one, report its % Haemolysis 150 μM.
System: erythrocytes from fresh human blood
Protocol Conditions: 150 μM peptide, 5% erythrocytes, 1 h at 37° C., relative to 200 μM melittin
Residues, ends and D or L forms follow the SMILES beside them. *: point of attachment. Bz = O=C(c1ccccc1)*
Give bare numbers, in %.

{"Compound": "CC[C@H](C)[C@H](NC(=O)[C@H](CCCCN)NC(=O)[C@H](CCCCN)NC(=O)[C@H](Cc1ccccc1)NC(=O)[C@H](CC(C)C)NC(=O)[C@H](CCCCN)NC(=O)[C@H](Cc1ccc(O)cc1)NC(=O)c1ccccc1)C(=O)N[C@@H](CC(C)C)C(=O)N[C@@H](CCCCN)C(=O)N[C@@H](CCCCN)C(=O)N[C@@H](CC(C)C)C(N)=O [BP122] (Bz-YKLFKKILKKL-NH2)", "% Haemolysis 150 μM (%)": 78}
{"Compound": "CC[C@H](C)[C@H](NC(=O)[C@H](CCCCN)NC(=O)[C@H](CCCCN)NC(=O)[C@H](Cc1ccccc1)NC(=O)[C@H](CC(C)C)NC(=O)[C@H](CCCCN)NC(=O)[C@H](CCCCN)NC(=O)c1ccccc1)C(=O)N[C@@H](CC(C)C)C(=O)N[C@@H](CCCCN)C(=O)N[C@H](C(=O)N[C@@H](CC(C)C)C(N)=O)C(C)C", "% Haemolysis 150 μM (%)": 71}

Ask: What measured % Haemolysis 150 μM goes with `CC[C@H](C)[C@H](NC(=O)[C@H](CCCCN)NC(=O)[C@H](CCCCN)NC(=O)[C@H](Cc1ccccc1)NC(=O)[C@H](CC(C)C)NC(=O)[C@H](CCCCN)NC(=O)[C@@H](N)Cc1c[nH]c2ccccc12)C(=O)N[C@@H](CC(C)C)C(=O)N[C@@H](CCCCN)C(=O)N[C@@H](Cc1ccc(O)cc1)C(=O)N[C@@H](CC(C)C)C(N)=O` ?
Reply: 77

* * *

Study Target: Proteinase K (Parengyodontium album)
Sequence (P06873 106-384): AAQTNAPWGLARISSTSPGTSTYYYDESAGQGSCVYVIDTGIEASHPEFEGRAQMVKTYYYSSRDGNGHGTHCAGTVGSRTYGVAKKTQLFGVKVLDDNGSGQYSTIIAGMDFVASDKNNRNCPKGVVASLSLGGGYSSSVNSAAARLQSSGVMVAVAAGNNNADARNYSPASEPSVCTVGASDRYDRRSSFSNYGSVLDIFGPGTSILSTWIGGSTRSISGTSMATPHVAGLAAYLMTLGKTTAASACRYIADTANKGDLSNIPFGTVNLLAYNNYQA
Experiment Notes: in vitro
Protocol Conditions: Proteinase K (1 μg/ml), pH 7.6
Quantity Name: metabolised at 0.75 h, 50 μg/ml (%)
Give bare numbers, in %.

Known results for compounds:
{"Test Smiles": "CC[C@H](C)[C@H](NC(=O)[C@H](CCCCN)NC(=O)[C@H](CCCCN)NC(=O)[C@H](Cc1ccccc1)NC(=O)[C@H](CC(C)C)NC(=O)[C@H](CCCCN)NC(=O)[C@@H](N)CCCCN)C(=O)N[C@@H](CC(C)C)C(=O)N[C@@H](CCCCN)C(=O)N[C@H](C(=O)N[C@@H](CC(C)C)C(N)=O)C(C)C", "Measurement Unit": "%", "metabolised at 0.75 h, 50 μg/ml": 100}
{"Test Smiles": "CC[C@H](C)[C@H](NC(=O)[C@H](CCCCN)NC(=O)[C@H](CCCCN)NC(=O)[C@H](Cc1ccccc1)NC(=O)[C@H](CC(C)C)NC(=O)[C@H](CCCCN)NC(=O)[C@H](CCCCN)NC(C)=O)C(=O)N[C@@H](CC(C)C)C(=O)N[C@@H](CCCCN)C(=O)N[C@@H](Cc1ccccc1)C(=O)N[C@@H](CC(C)C)C(N)=O", "Measurement Unit": "%", "metabolised at 0.75 h, 50 μg/ml": 84}

We now examine a further compound.
Ask: Lookup: metabolised at 0.75 h, 50 μg/ml / Proteinase K (Parengyodontium album) / `CC[C@H](C)[C@H](NC(=O)[C@H](CCCCN)NC(=O)[C@H](CCCCN)NC(=O)[C@H](Cc1ccccc1)NC(=O)[C@H](CC(C)C)NC(=O)[C@H](CCCCN)NC(=O)[C@H](CCCCN)NC(=O)c1ccccc1)C(=O)N[C@@H](CC(C)C)C(=O)N[C@@H](CCCCN)C(=O)N[C@@H](CCCCN)C(=O)N[C@@H](CC(C)C)C(N)=O`
Reply: 53

* * *

Consider the following molecules; for each one, report its % Haemolysis 150 μM.
Test system: erythrocytes from fresh human blood
Protocol Conditions: 150 μM peptide, 5% erythrocytes, 1 h at 37° C., relative to 200 μM melittin
One number for each entry, in %.

Known results for molecules:
{"Molecule": "CC[C@H](C)[C@H](NC(=O)[C@H](CCCCN)NC(=O)[C@H](CCCCN)NC(=O)[C@H](Cc1ccccc1)NC(=O)[C@H](CC(C)C)NC(=O)[C@H](CCCCN)NC(=O)[C@H](CCCCN)NS(=O)(=O)c1ccc(C)cc1)C(=O)N[C@@H](CC(C)C)C(=O)N[C@@H](CCCCN)C(=O)N[C@@H](Cc1ccccc1)C(=O)N[C@@H](CC(C)C)C(N)=O [BP078]", "Study Target": "erythrocytes from fresh human blood", "% Haemolysis 150 μM [%]": 85}
{"Molecule": "CC[C@H](C)[C@H](NC(=O)[C@H](CCCCN)NC(=O)[C@H](CCCCN)NC(=O)[C@H](Cc1ccccc1)NC(=O)[C@H](CC(C)C)NC(=O)[C@H](CCCCN)NC(=O)[C@H](CCCCN)NC(=O)c1ccccc1)C(=O)N[C@@H](CC(C)C)C(=O)N[C@@H](CCCCN)C(=O)N[C@@H](CCCCN)C(=O)N[C@@H](CC(C)C)C(N)=O [BP126]", "Study Target": "erythrocytes from fresh human blood", "% Haemolysis 150 μM [%]": 14}
{"Molecule": "CC[C@H](C)[C@H](NC(=O)[C@H](CCCCN)NC(=O)[C@H](CCCCN)NC(=O)[C@H](Cc1ccccc1)NC(=O)[C@H](CC(C)C)NC(=O)[C@H](CCCCN)NC(=O)[C@H](CCCCN)NS(=O)(=O)c1ccc(C)cc1)C(=O)N[C@@H](CC(C)C)C(=O)N[C@@H](CCCCN)C(=O)N[C@@H](CCCCN)C(=O)N[C@@H](CC(C)C)C(N)=O [BP125]", "Study Target": "erythrocytes from fresh human blood", "% Haemolysis 150 μM [%]": 8}
{"Molecule": "CC[C@H](C)[C@H](NC(=O)[C@H](CCCCN)NC(=O)[C@H](CCCCN)NC(=O)[C@H](Cc1ccccc1)NC(=O)[C@H](CC(C)C)NC(=O)[C@H](CCCCN)NC(=O)[C@@H](N)Cc1ccccc1)C(=O)N[C@@H](CC(C)C)C(=O)N[C@@H](CCCCN)C(=O)N[C@@H](Cc1ccc(O)cc1)C(=O)N[C@@H](CC(C)C)C(N)=O [BP090]", "Study Target": "erythrocytes from fresh human blood", "% Haemolysis 150 μM [%]": 57}
{"Molecule": "CC[C@H](C)[C@H](NC(=O)[C@H](CCCCN)NC(=O)[C@H](CCCCN)NC(=O)[C@H](Cc1ccccc1)NC(=O)[C@H](CC(C)C)NC(=O)[C@H](CCCCN)NC(=O)[C@@H](N)CCCCN)C(=O)N[C@@H](CC(C)C)C(=O)N[C@@H](CCCCN)C(=O)N[C@@H](Cc1ccc(O)cc1)C(=O)N[C@@H](CC(C)C)C(N)=O [BP100]", "Study Target": "erythrocytes from fresh human blood", "% Haemolysis 150 μM [%]": 22}
{"Molecule": "CC[C@H](C)[C@H](NC(=O)[C@H](CCCCN)NC(=O)[C@H](CCCCN)NC(=O)[C@H](Cc1ccccc1)NC(=O)[C@H](CC(C)C)NC(=O)[C@H](CCCCN)NC(=O)[C@@H](N)CC(C)C)C(=O)N[C@@H](CC(C)C)C(=O)N[C@@H](CCCCN)C(=O)N[C@@H](Cc1ccc(O)cc1)C(=O)N[C@@H](CC(C)C)C(N)=O [BP105]", "Study Target": "erythrocytes from fresh human blood", "% Haemolysis 150 μM [%]": 91}

We now examine a further molecule.
Ask: Lookup: % Haemolysis 150 μM / erythrocytes from fresh human blood / CC[C@H](C)[C@H](NC(=O)[C@H](CCCCN)NC(=O)[C@H](CCCCN)NC(=O)[C@H](Cc1ccccc1)NC(=O)[C@H](CC(C)C)NC(=O)[C@H](CCCCN)NC(=O)[C@H](CCCCN)NC(C)=O)C(=O)N[C@@H](CC(C)C)C(=O)N[C@@H](CCCCN)C(=O)N[C@@H](Cc1ccc(O)cc1)C(=O)N[C@@H](CC(C)C)C(N)=O [BP101]
Reply: 31
